Values from the supplement of paper PMC7125110

B1: glmS ribozyme (parent)
chain: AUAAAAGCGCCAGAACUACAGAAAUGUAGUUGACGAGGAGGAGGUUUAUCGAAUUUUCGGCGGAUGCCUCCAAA

Variants of: B1
test-description: self-cleavage kobs at 10000 uM GlcN6P; higher = faster cleavage; RNA array
condition-parameters: with glucosamine-6-phosphate
Variants at the floor of the assay were thinned out.
assay-readout: self-cleavage kobs at 10000 uM GlcN6P (s⁻¹)
Numbers only here, please. The scale is s⁻¹.

G13A C67G: 2.48e-05
G37A A53U: 0.00185
U47G A52G U69C: 9.36e-05
C19A G40C: 0.00113

The value of self-cleavage kobs at 10000 uM GlcN6P measured for the variant U47A G59A C71U turned out to be 6.73e-05

Consider G32U A42G . Its measured self-cleavage kobs at 10000 uM GlcN6P is 0.000988
